The origin of these recorded values is ChEMBL document CHEMBL1817599.

biological target: S-ribosylhomocysteine lyase (Bacillus subtilis (strain 168)); assay: Competitive inhibition of Bacillus subtilis LuxS preincubated for 30 mins by UV-vis spectrophotometric analysis
Sequence (O34667 whole entry): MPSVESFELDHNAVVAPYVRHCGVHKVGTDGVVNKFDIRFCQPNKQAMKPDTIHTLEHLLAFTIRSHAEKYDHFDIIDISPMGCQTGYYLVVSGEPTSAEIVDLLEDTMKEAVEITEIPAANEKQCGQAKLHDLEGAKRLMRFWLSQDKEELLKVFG
test.readout: IC50 (µM)
Quick note: give the figure in µM, leave out the unit.

Looking up N[C@@H](CCSC[C@H]1NC(O)[C@H](O)[C@@H]1O)C(=O)O (mixture of isomers) , I found its IC50 recorded as 60
